Attribution: patent US10689378B2

tested-on: wild type PRC2 (wtPRC2) complex (Homo sapiens, UniProt O75530)
Sequence (O75530 whole entry): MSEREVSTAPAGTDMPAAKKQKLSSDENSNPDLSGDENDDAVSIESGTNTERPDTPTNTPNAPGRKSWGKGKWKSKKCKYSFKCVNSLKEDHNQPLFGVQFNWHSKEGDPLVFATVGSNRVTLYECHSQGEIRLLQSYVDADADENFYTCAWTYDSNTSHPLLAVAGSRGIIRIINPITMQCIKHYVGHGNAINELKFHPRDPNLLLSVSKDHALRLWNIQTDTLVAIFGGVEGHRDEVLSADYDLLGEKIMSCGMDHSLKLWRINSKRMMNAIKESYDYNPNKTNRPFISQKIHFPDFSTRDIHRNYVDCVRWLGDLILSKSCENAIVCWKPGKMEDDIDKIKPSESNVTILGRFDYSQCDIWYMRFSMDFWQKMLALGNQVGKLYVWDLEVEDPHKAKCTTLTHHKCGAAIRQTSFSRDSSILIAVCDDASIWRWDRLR
Sequence (Q15910 whole entry partner): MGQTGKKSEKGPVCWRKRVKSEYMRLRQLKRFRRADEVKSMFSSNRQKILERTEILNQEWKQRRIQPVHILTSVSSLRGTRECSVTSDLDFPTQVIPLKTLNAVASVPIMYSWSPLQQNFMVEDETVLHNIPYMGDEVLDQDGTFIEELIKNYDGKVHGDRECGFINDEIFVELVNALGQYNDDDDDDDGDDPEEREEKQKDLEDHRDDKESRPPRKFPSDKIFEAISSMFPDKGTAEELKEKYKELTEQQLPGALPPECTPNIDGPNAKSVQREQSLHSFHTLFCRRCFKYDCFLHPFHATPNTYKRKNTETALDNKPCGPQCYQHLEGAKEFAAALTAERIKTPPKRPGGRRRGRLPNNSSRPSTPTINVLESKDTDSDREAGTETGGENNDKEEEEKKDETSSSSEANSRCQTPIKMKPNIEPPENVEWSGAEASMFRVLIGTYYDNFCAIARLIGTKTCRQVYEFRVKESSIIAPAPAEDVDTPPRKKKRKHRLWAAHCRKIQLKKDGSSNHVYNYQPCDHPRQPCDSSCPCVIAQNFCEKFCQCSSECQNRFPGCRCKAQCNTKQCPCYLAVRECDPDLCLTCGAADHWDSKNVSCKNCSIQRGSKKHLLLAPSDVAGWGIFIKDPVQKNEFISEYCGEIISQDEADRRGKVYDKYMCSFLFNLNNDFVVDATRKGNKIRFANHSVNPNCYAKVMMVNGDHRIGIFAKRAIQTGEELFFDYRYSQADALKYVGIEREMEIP
Sequence (Q15022 whole entry partner): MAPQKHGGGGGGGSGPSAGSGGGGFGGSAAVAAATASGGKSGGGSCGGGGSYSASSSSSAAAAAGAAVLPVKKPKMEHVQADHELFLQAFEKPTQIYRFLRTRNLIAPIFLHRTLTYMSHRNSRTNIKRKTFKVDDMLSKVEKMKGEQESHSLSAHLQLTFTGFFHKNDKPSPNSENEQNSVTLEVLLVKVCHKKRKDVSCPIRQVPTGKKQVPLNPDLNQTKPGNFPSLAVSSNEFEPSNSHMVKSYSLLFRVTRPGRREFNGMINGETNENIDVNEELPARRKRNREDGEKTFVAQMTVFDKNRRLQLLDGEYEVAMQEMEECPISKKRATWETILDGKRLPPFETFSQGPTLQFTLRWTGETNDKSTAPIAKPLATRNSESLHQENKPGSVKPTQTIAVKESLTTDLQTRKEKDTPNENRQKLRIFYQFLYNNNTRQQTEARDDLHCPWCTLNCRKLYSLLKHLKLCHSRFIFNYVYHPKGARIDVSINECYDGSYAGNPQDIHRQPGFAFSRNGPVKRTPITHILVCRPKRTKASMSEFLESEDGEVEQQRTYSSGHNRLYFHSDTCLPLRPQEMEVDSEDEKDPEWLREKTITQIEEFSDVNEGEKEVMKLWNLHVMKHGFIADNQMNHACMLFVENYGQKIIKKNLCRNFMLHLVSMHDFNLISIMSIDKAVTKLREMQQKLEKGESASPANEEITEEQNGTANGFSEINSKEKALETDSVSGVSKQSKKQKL
Sequence (Q09028 whole entry partner): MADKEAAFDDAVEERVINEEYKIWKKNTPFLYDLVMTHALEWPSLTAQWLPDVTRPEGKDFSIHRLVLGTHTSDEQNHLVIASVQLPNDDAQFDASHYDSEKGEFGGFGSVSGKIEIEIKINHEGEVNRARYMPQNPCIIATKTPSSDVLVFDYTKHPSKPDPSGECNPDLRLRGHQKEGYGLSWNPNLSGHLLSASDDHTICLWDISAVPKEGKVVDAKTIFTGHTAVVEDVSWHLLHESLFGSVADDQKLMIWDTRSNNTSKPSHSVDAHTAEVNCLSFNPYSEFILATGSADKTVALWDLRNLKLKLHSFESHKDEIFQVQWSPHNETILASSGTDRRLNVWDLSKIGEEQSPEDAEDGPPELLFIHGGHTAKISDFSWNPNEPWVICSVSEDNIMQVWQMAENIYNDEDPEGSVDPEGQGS
Sequence (Q6ZN18 whole entry partner): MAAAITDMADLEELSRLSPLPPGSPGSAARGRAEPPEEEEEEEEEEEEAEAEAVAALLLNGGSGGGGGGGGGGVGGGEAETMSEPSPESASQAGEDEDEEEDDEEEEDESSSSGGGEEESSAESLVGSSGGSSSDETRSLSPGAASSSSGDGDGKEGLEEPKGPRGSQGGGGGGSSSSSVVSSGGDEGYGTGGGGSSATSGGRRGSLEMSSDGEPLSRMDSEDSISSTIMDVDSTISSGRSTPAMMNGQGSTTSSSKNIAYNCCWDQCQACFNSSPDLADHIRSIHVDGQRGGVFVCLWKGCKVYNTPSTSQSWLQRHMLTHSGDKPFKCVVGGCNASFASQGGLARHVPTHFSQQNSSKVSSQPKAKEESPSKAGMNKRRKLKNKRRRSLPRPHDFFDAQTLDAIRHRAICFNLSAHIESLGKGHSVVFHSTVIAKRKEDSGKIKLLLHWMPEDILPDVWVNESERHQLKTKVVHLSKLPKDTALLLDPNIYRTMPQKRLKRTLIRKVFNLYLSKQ
protocol-notes: EED LC-MS assay (SAH production by PRC2)
Assay type: biochemical
assay-context: read-out: (b) IC50, EED LC-MS Qualified
quantity: IC50 (nM)

> print(dat)
                      smiles.representation                                 tested.on  reported
1  COc1cncc(-c2ccc(NCc3c(F)cccc3OC)n3cnnc23)c1  wild type PRC2 (wtPRC2) complex (Homo sapiens, UniProt O75530)      99.8
2  COc1cccc(F)c1CNc1ccc(-c2nnc(C)o2)c2nncn12  wild type PRC2 (wtPRC2) complex (Homo sapiens, UniProt O75530)      62.4
3  COc1cccc(F)c1CNc1ccc(-c2c(C)nn(C)c2C)c2nncn12  wild type PRC2 (wtPRC2) complex (Homo sapiens, UniProt O75530)      64.5
4  COc1cccc(F)c1CNc1ccc(-c2ccc(S(C)(=O)=O)cc2)c2nncn12  wild type PRC2 (wtPRC2) complex (Homo sapiens, UniProt O75530)      75.1
5  COc1ccccc1CNc1ccc(-c2ccc(N3CCN(C(C)C)CC3)nc2)c2nncn12  wild type PRC2 (wtPRC2) complex (Homo sapiens, UniProt O75530)       239

A = COc1ccccc1CNc1ccc(-c2cccc(CCN(C)C)c2)c2nncn12
B = CN(C)Cc1ccc(-c2ccc(NCc3ccccc3OC(F)F)n3cnnc23)cc1
C = COc1cccc(F)c1CNc1ccc(-c2ccc(CN(C)C)cc2)c2nncn12
D = COc1cccc(F)c1CNc1ccc(-c2ccc(C(=O)N3CCCC3)cc2)c2nncn12
Sort low-to-high on IC50, please. Could you list the labels in the order requested?
C, A, D, B
(C: 23.3 nM, A: 62.3 nM, D: 108 nM, B: 587 nM)

1 = COc1ccccc1CNc1ccc(-c2ccc(CN3CCN(C)CC3)cc2)c2nncn12
2 = COc1cccc(F)c1CNc1ccc(-c2ccc(C)nc2)c2nncn12
Please indicate which item has the smaller measured IC50: 1 versus 2 Let me know the label of the one you choose.
2

---

tested-on: wild type PRC2 (wtPRC2) complex (Homo sapiens, UniProt O75530)
protocol-notes: EED LC-MS assay (SAH production by PRC2)
Format: biochemical
assay-context: PRC2 LC-MS assay; read-out: (b) IC50 EED LC-MS Qualified
quantity: IC50 (nM)

> print(dat)
                                   compound                                 tested.on  quantity  reported
1  CCc1ncccc1-c1ccc(NCc2c(F)cc(F)cc2OC)n2cnnc12 [Example 298]  wild type PRC2 (wtPRC2) complex (Homo sapiens, UniProt O75530)      IC50       362

A = COc1cccc(F)c1CNc1ccc(-c2cc(C(F)F)ncc2C)c2nncn12 [Example 306]
B = COc1cccc(F)c1CNc1ccc(-c2c(C)nn(C3CC3)c2C)c2nncn12 [Example 275]
Endpoint returns the identifier whose IC50 is numerically larger, either A or B . Identify your selection by its label.
B

---

tested-on: wild type PRC2 (wtPRC2) complex (Homo sapiens)
protocol-notes: EED LC-MS assay (SAH production by PRC2)
Type: biochemical
assay-context: read-out: (b) IC50, EED LC-MS Qualified
quantity: IC50 (nM)

Solved cases (7 shown):
> print(dat)
                      smiles.representation  quantity  reported
1  COc1cccc(F)c1CNc1ccc(-c2ccc(S(C)(=O)=O)nc2)c2nncn12      IC50       256
2  COc1cccc(F)c1CNc1ccc(-c2ccc(NS(C)(=O)=O)c(F)c2)c2nncn12      IC50       454
3  COc1ccccc1CNc1ccc(-c2cnc(N3CCN(C)CC3)c(C)c2)c2nncn12      IC50       248
4  COc1ccccc1CNc1ccc(-c2ccc(NS(C)(=O)=O)cc2)c2nncn12      IC50       509
5  COc1cccc(F)c1CNc1ccc(-c2cncc(S(C)(=O)=O)c2)c2nncn12      IC50       268
6  COc1cccc(F)c1CNc1ccc(-c2cnc(N3CCN(C(C)C)CC3)nc2)c2nncn12      IC50       181
7  COc1ccccc1CNc1ccc(-c2ccc(S(C)(=O)=O)cc2)c2nncn12      IC50       151

a = COc1ccccc1CNc1ccc(-c2ccc(CN(C)C)cc2F)c2nncn12
b = COc1cccc(F)c1CNc1ccc(-c2ccc(OCCS(C)(=O)=O)cc2)c2nncn12
Among a and b , which shows a numerically higher IC50 result? Select an item and report its label.
b
(b: 305 nM, a: 188 nM)
